target: His–CtBP2 (UniProt P56545 1-445); experiment: ELISA
pIC50: −log10 of the molar value.
assay-readout: pIC50

1) SGWTVVRMY (cyclic peptide (cyclo-SGWTVVRMY)) [CP61 (cyclo-SGWTVVRMY)]    4.72
